Where these numbers come from: ChEMBL document CHEMBL4627327

- System: Staphylococcus aureus
- assay-explanation: Antibacterial activity against methicillin-resistant Staphylococcus aureus isolate 750 assessed as bacterial growth inhibition measured after 18 hrs by CLSI protocol based two-fold serial microdilution method
- Assay type: functional
- conditions: isolate 750, 18 h
measured-property: MIC (µM)
Write the number in µM without appending the unit.

molecule | display-unit | MIC
CC[C@@H](C(=O)[C@@H](C)[C@@H](O)[C@H](C)[C@@H]1O[C@@H]([C@@H](CC)C(=O)NCCc2ccc(F)cc2)CC[C@@H]1C)[C@H]1O[C@]2(C=C[C@@H](O)[C@]3(CC[C@@](C)([C@H]4CC[C@](O)(CC)[C@H](C)O4)O3)O2)[C@H](C)C[C@@H]1C | µM | 18.4
CC[C@@H](C(=O)[C@@H](C)[C@@H](O)[C@H](C)[C@@H]1O[C@@H]([C@@H](CC)C(=O)ONC(=O)c2ccccc2O)CC[C@@H]1C)[C@H]1O[C@]2(C=CC(=O)[C@]3(CC[C@@](C)([C@H]4CC[C@](O)(CC)[C@H](C)O4)O3)O2)[C@H](C)C[C@@H]1C | µM | 4.52
CC[C@@H](C(=O)[C@@H](C)[C@@H](O)[C@H](C)[C@@H]1O[C@@H]([C@@H](CC)C(=O)O)CC[C@@H]1C)[C@H]1O[C@]2(C=C[C@@H](O)[C@]3(CC[C@@](C)([C@H]4CC[C@](O)(CC)[C@H](C)O4)O3)O2)[C@H](C)C[C@@H]1C [SALINOMYCIN] | µM | 1.33

Prompt: Fill in the blank: the reported MIC of `C#CCN[C@@H]1C=C[C@]2(O[C@H]([C@@H](CC)C(=O)[C@@H](C)[C@@H](O)[C@H](C)[C@@H]3O[C@@H]([C@@H](CC)C(=O)O)CC[C@@H]3C)[C@@H](C)C[C@H]2C)O[C@@]12CC[C@@](C)([C@H]1CC[C@](O)(CC)[C@H](C)O1)O2` is ____.
Completion: 1.27

====

- assay-explanation: Genotoxicity in rec-positive Bacillus subtilis H17 assessed as diameter of inhibition zone at 256 ug measured after 24 hrs by rec-assay
- Assay type: toxicity
- conditions: in vivo
measured-property: diameter of the inhibition zone (DIZ) (mm)
Numeric answer only, unit mm assumed.

Prompt: I have this compound here, `CC[C@@H](C(=O)[C@@H](C)[C@@H](O)[C@H](C)[C@@H]1O[C@@H]([C@@H](CC)C(=O)NCCc2ccc(F)cc2)CC[C@@H]1C)[C@H]1O[C@]2(C=C[C@@H](O)[C@]3(CC[C@@](C)([C@H]4CC[C@](O)(CC)[C@H](C)O4)O3)O2)[C@H](C)C[C@@H]1C` , and I need its recorded diameter of the inhibition zone (DIZ).
Completion: 20

Prompt: Could you share which diameter of the inhibition zone (DIZ) value was measured for `CC[C@@H](C(=O)[C@@H](C)[C@@H](O)[C@H](C)[C@@H]1O[C@@H]([C@@H](CC)C(=O)O)CC[C@@H]1C)[C@H]1O[C@]2(C=C[C@@H](O)[C@]3(CC[C@@](C)([C@H]4CC[C@](O)(CC)[C@H](C)O4)O3)O2)[C@H](C)C[C@@H]1C` ?
Completion: 32

====

Entries and their diameter of the inhibition zone (DIZ) values follow.
- assay-explanation: Genotoxicity in rec negative Bacillus subtilis M45 assessed as diameter of inhibition zone at 256 ug measured after 24 hrs by rec-assay
- Assay type: toxicity
- conditions: in vivo
Record the value in mm, omitting the unit from your answer.

# count of solved cases: 3
compound | result-value
CC[C@@H](C(=O)[C@@H](C)[C@@H](O)[C@H](C)[C@@H]1O[C@@H]([C@@H](CC)C(=O)ONC(=O)c2ccccc2)CC[C@@H]1C)[C@H]1O[C@]2(C=C[C@@H](O)[C@]3(CC[C@@](C)([C@H]4CC[C@](O)(CC)[C@H](C)O4)O3)O2)[C@H](C)C[C@@H]1C | 32
CC[C@@H](C(=O)[C@@H](C)[C@@H](O)[C@H](C)[C@@H]1O[C@@H]([C@@H](CC)C(=O)ONC(=O)c2ccccc2O)CC[C@@H]1C)[C@H]1O[C@]2(C=C[C@@H](O)[C@]3(CC[C@@](C)([C@H]4CC[C@](O)(CC)[C@H](C)O4)O3)O2)[C@H](C)C[C@@H]1C | 30
CC[C@@H](C(=O)[C@@H](C)[C@@H](O)[C@H](C)[C@@H]1O[C@@H]([C@@H](CC)C(=O)O)CC[C@@H]1C)[C@H]1O[C@]2(C=C[C@@H](O)[C@]3(CC[C@@](C)([C@H]4CC[C@](O)(CC)[C@H](C)O4)O3)O2)[C@H](C)C[C@@H]1C [SALINOMYCIN] | 34

Prompt: Endpoint output: diameter of the inhibition zone (DIZ) of O=[N+]([O-])c1cc[n+]([O-])c2ccccc12 [4-NITROQUINOLINE-1-OXIDE] . Value?
Completion: 34

Prompt: Look up diameter of the inhibition zone (DIZ): `CC[C@@H](C(=O)[C@@H](C)[C@@H](O)[C@H](C)[C@@H]1O[C@@H]([C@@H](CC)C(=O)O)CC[C@@H]1C)[C@H]1O[C@]2(C=CC(=O)[C@]3(CC[C@@](C)([C@H]4CC[C@](O)(CC)[C@H](C)O4)O3)O2)[C@H](C)C[C@@H]1C`
Completion: 34
